Molecular target: pooled human IgG
Property name: Enzyme Activity Endpoint Assay: Fc (ng/µL)

{"Protein": "PRT-30 (protein) MANQEIRYSEVTPYHVTSVWTKGVTPPANFTQGEDVFHAPYVANQGWYDITKTFNGKDDLLCGAATAGNMLHWWFDQNKDQIKRYLEEHPEKQKINFNGEQMFDVKEAIDTKNHQLDSKLFEYFKEKAFPYLSTKHLGVFPDHVLDMFINGYRLSLTNHGPTPVKEGSKDPRGGIFDAVFTRGDQSKLLTSRHDFKEKTLKEISDLIKKELTEGKALGLSHTYANVRINHVINLWGADFDSEGNLKAIYVTDSDSNASIGMKKYFVGVNSAGKVAISAKEIKEDNIGAQVLGLFTLSTGQDSWNQTN", "Property name": "Enzyme Activity Endpoint Assay: Fc", "Unit tag": "ng/µL", "Value reported": 73}
{"Protein": "PRT-10 (protein) MANQEIRYSEVTPYTVTSVWTKGVTPPANFTQGEDVFHAPYVANQGWYDITKTFNGKDDLLCGAATAGNMLHWWFDQNKEQIERYLKEHPEKQKINFNGEQMFDVKEAIDTKDSQLDSELFEYFKEKAFPYLSTKHLGVFPDHVIDMFINGYRLSLTNHGPTPVKEGSKDPRGGIFDAVFTRGDQSKLLTSRHDFKEKTLKEISDLIKKELTEGKALALSHTYANVRINHVINLWGADFDSEGNLEAIYVTDSDSNASIGMKKYFVGVNSAGKVAISAKEIEDDNIGAQVLGLFTLSTGQDIWNQTN", "Property name": "Enzyme Activity Endpoint Assay: Fc", "Unit tag": "ng/µL", "Value reported": 56}
{"Protein": "PRT-48 (protein) MANQEIRYSEVTPYHVTSVWTKGVTPPANFTQGEDVFHAPYKANQGWYDINKTFNGGDDLLCGAATAGNMLHWWFDQNKDYIDRYLEEHPEKQKINFNGEQMFDVKEAIDTKNNQTDSKLFEYFKEKAFPYLSTKHLGVFPDRVIDMFINGYRLSLTNHGPTPVKEGSKDPRGGFFDDVFTRGDQSKLLTSRHDFKEKNLKEISDLIKKELKEGKALGLSHTYANVRINHVINLWGADFDSNGNLKAIYVTDSDSNASVGMKKYRVGVNSAGKVAISAKEIKEDNIGAQVLGLFTLSTGQDSWNQTN", "Property name": "Enzyme Activity Endpoint Assay: Fc", "Unit tag": "ng/µL", "Value reported": 5}
{"Protein": "PRT-552 (protein) MANQEIRYSEETPKTITSVWTKGVTPPTDFIQNEDVLHAPYIANQGWYDITKTFNGKDDLLCGAATAGNMLHWWFDQNKEEIENYLKKHPEKQKINFNGEQMFDVKEAIDTKDSQTDSALFEYFKDKAFPYLSTKHLGVFPDHVIDMFINGYRLSLTNHGPTPVKRGTKDPRGGIFDAVFTRGDQSKLLTARHDFKEKTLNEISDLIKQELTEGKALGLSHTYANVRINHVINLWGADFNSEGNLEAIYVTDSDSNASIGMKKYYVGVNAAGKVAISAKEIEGDNIGAQVLGLFTLSTGQDIWNQTNLEHHHHHH", "Property name": "Enzyme Activity Endpoint Assay: Fc", "Unit tag": "ng/µL", "Value reported": 294}
{"Protein": "PRT-28 (protein) MANQEIRYSEVTPYHVTSVWTKGVTPPANFTQGEDVFHAPYVANQGWYDITKTFNGKDDLLCGAATAGNMLHWWFDQNKDQIKRYLEEHPEKQKINFNGEQMFDVKEAIDTKDHQLDSKLFEYFKEKAFPYLSTKHLGVFPDHVLDMFINGYRLSLTNHGPTPVKEGSKDPRGGIFDAVFTRGDQSKLLTSRHDFKEKTLKEISDLIKKELTEGKALGLSHTYANVRINHVINLWGADFDSNGNLKAIYVTDSDSNASIGMKKYFVGVNSAGKVAISAKEIKEDNIGAQVLGLFTLSTGQDSWNQTN", "Property name": "Enzyme Activity Endpoint Assay: Fc", "Unit tag": "ng/µL", "Value reported": 89}
{"Protein": "PRT-285 (protein) MVTSVWTKGVTPPAKFTQGEDVFHAPYDANQGWYDITKTFNGKDDLLCGAATAGNMLHWWFDQNKEKIEAYLKKHPDKQKIMFGDQELLDVRKVINTKGDQTNSELFNYFRDKAFPGLSARRIGVMPDLVLDMFINGYYLNVYKTQTTDVNRTYQEKDRRGGIFDAVFTRGDQSKLLTSRHDFKEKNLKEISDLIKKELTEGKALGLSHTYANVRISHVINLWGADFDSNGNLKAIYVTDSDSNASIGMKKYGVGVNSAGKVAISAKEIKEDNIGAQVLGLFTLSTGQDSWNQTN", "Property name": "Enzyme Activity Endpoint Assay: Fc", "Unit tag": "ng/µL", "Value reported": 0}
{"Protein": "PRT-530 (protein) MANQEIRYSEETPKTITSVWTKGVTPPTDFIQNEDVLHAPYIANQGWYDITKTFNGKDDLLCGAATAGNMLHWWFDQNKEEIENYLKKHPEKQKINFNGEQMFDVKEAIDTKDSQTDSALFEYFKDKAFPYLSTKHLGVMPDLVLDMFINGYYLSVGKHGPTPVKRGTKDPRGGIFDAVFTRGDQSKLLTARHDFKEKTLNEISDLIKQELTEGKALALSHTYANVRINHVINLWGADFNSEGNLEAIYVTDSDSNASIGMKKYYVGVNAAGKVAISAKEIEGDNIGAQVLGLFTLSTGQDIWEQTNLEHHHHHH", "Property name": "Enzyme Activity Endpoint Assay: Fc", "Unit tag": "ng/µL", "Value reported": 225}
{"Protein": "PRT-278 (protein) MVTSVWTKGVTPPTDFIYGEDVLHAPYKAGQGWYDITKLFNGKDNLLCGAATAGNMLHWWFDQNKEQIENYLKKHPEKQKIIFNNQELFDLKAAIDTKDSQLDSKLFDYFKEKAFPYLSTKHLGVFPDHVIDMFINGYRLSLTNHGPTPVKRGSKDKRGGIFDAVFTRGVQSKLLTNRHDLKNKTLKEISDLIKQELTEGKALGISHTYANVRINHVINLWGADFDAEGNLEAIYVTDSDTNPSIGMKKYFVGVNSSGKVAISAKEIEEDNIGAQVLGLFTLSTGQDIWNQTN", "Property name": "Enzyme Activity Endpoint Assay: Fc", "Unit tag": "ng/µL", "Value reported": 315}
